These entries and their values trace back to patent US8426447B2.

Target: BACE1 (Homo sapiens, UniProt P56817)
Sequence (P56817 46-501, species assumed): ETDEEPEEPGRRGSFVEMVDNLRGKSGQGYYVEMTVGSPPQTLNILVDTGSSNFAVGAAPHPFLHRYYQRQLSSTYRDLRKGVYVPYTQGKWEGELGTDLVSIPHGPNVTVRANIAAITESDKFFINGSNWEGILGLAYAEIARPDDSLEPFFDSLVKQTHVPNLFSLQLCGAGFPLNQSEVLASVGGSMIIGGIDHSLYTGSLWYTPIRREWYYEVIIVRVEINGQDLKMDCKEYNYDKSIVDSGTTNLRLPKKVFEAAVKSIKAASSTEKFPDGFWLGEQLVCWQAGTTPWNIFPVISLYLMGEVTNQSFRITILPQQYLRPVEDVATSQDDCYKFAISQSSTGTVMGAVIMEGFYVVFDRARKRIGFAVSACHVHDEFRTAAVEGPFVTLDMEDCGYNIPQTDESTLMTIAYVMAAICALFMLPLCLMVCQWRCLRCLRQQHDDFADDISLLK
Assay: In Vitro BACE Cell-based Assay (HEK cell assay): Aβ40 in conditioned medium of cells stably expressing Amyloid Precursor Protein, sandwich ELISA
Conditions: read-out: HEK cell assay
pIC50: −log10 of the molar value.
experimental_readout: pIC50

Problem: Given NC1=N[C@@]2(CO1)c1cc(-c3cccnc3)ccc1Oc1ncc(C3=CCOCC3)cc12 [compound 664] , respond with its pIC50.
Solution: > 7.00

Problem: Given CC1(C)CC(=O)N(c2ccc3c(c2)[C@]2(COC(N)=N2)c2cc(-c4cccnc4)ccc2O3)C1 [compound 749] , respond with its pIC50.
Solution: > 7.00

Problem: Given CC(C)(C)COc1ccc2c(n1)[C@]1(COC(N)=N1)c1cc(-c3cncnc3)ccc1O2 [compound 733] , respond with its pIC50.
Solution: > 7.00

Problem: Given CC(=O)COc1ccc2c(c1)[C@@]1(COC(N)=N1)c1cc(-c3cccnc3)cnc1O2 [compound 926] , respond with its pIC50.
Solution: 6.00 to 7.00

Problem: Given NC1=N[C@]2(CO1)c1cc(-c3cccc(F)c3)ccc1Oc1ncc(C3=CCOCC3)cc12 [compound 690] , respond with its pIC50.
Solution: < 5.30

Problem: Given COC(=O)/C=C/c1ccc2c(c1)[C@]1(COC(N)=N1)c1cc(-c3cccnc3)ccc1O2 [compound 947] , respond with its pIC50.
Solution: 6.00 to 7.00

Problem: Given NC1=N[C@@]2(CO1)c1cc(-c3cccnc3)ccc1Oc1cnc([C@@H]3CCCCO3)cc12 [compound 696] , respond with its pIC50.
Solution: > 7.00
